- MEASURED ON: AuroraA-TPX2 (Homo sapiens, UniProt O14965)
- Construct: 20 µL of AuroraA-TPX2 KD GST; GST
- Sequence (O14965 133-383 limits assumed): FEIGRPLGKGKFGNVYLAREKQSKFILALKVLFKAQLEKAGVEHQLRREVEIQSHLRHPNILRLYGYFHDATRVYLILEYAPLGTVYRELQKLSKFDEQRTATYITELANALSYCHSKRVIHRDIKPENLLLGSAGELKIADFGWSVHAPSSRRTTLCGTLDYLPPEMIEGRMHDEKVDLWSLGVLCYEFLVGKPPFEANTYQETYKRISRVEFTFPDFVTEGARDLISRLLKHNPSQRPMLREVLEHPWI
- Sequence (Q9ULW0 1-43 partner limits assumed): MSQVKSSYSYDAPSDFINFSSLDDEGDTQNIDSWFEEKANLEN
- ASSAY PROTOCOL: AuroraA-TPX2 Homogeneous Time Resolved Fluorescent (HTRF) kinase assay
- Type: biochemical
- MEASUREMENT CONDITIONS: average; given as class symbols; read-out: AurA/TP X2_ IC50_IP (Avg)
PROPERTY LABEL: IC50

Take a look at these entries with their results.
Cc1cc(-c2ccccc2)nnc1Nc1ccc(Oc2ncccc2-c2ccnc(NCCCN3CCN(C)CC3)n2)cc1 :: ≤ 100 nM
Nc1nccc(-c2cccnc2Oc2ccc(Nc3nnc(-c4cccc(O)c4)c4ccccc34)cn2)n1 :: ≤ 100 nM
Nc1nccc(-c2cccnc2Oc2ccc(Nc3nnc(-c4ccccc4CO)c4ccccc34)cn2)n1 :: 100 to 500 nM
CNc1cc(-c2cccnc2Nc2ccc(Nc3nnc(-c4ccccc4)c4ccccc34)cc2)ncn1 :: 100 to 500 nM
OCCN(CCO)CCCNc1nccc(-c2cccnc2Oc2ccc(Nc3nnc(-c4ccccc4)c4ccccc34)cc2)n1 :: 100 to 500 nM

What does the data say about its IC50? Entry: `FC1(F)CCCN(CCCNc2nccc(-c3cccnc3Oc3ccc(Nc4nnc(-c5ccccc5)c5ccccc45)cc3)n2)C1` ≤ 100 nM

So what's the measured IC50 for this one? `CN(C)CCCOc1cccc(-c2nnc(Nc3ccc(Oc4ncccc4-c4ccnc(N)n4)nc3)c3ccccc23)c1` 100 to 500 nM

###

- MEASURED ON: AuroraA-TPX2 (Homo sapiens, UniProt O14965)
- Construct: 20 µL of AuroraA-TPX2 KD GST; GST
- ASSAY PROTOCOL: AuroraA-TPX2 Homogeneous Time Resolved Fluorescent (HTRF) kinase assay
- Format: biochemical
- MEASUREMENT CONDITIONS: average; given as numbers, unit inferred; read-out: AurA/TP X2_ IC50_IP (Avg)
pIC50: −log10 of the molar value.
PROPERTY LABEL: pIC50

Consider the following illustrative entries.
Nc1nccc(-c2cccnc2Oc2ccc(Nc3nnc(N4CCCC(F)C4)c4ccccc34)cc2)n1 (stereo not shown) :: 7.52
Cc1cccc(-c2nnc(Nc3ccc(Oc4ncccc4-c4ccnc(NCCCN5CCN(C)CC5)n4)cc3)c3ccccc23)n1 :: 7.02
CN1CCN(CCCNc2ncc(F)c(-c3cccnc3Oc3ccc(Nc4nnc(-c5ccccc5)c5ccccc45)cc3)n2)CC1 :: 7.80
Cc1ccc(-c2nnc(Nc3ccc(Oc4ncccc4-c4ccnc(N)n4)nc3)c3ccccc23)nc1 :: 7.62
Nc1nccc(-c2cccnc2Oc2ccc(Nc3nnc(-c4ccccc4O)c4ccccc34)cn2)n1 :: 7.56

1: Nc1n[nH]cc1-c1cccnc1Oc1ccc(Nc2nnc(Cc3ccccc3)c3ccccc23)cc1
2: Cc1cccc(-c2nnc(Nc3ccc(Oc4ncccc4-c4ccnc(NCCCN5CCNCC5)n4)cc3)c3ccccc23)n1
Among 1 and 2 , whose measured pIC50 is the smaller figure? State the label of the item chosen. 2

###

Each entry below carries its recorded pIC50.
- MEASURED ON: AuroraA-TPX2 (Homo sapiens)
- Construct: 20 µL of AuroraA-TPX2 KD GST; GST
- ASSAY PROTOCOL: AuroraA-TPX2 Homogeneous Time Resolved Fluorescent (HTRF) kinase assay
- Type: biochemical
- MEASUREMENT CONDITIONS: average; given as class symbols; read-out: AurA/TP X2_ IC50_IP (Avg)
pIC50: −log10 of the molar value.

Worked examples, 5 compounds total:
c1ccc(-c2nnc(Nc3ccc(Oc4ncccc4-c4ccnc5c4CCCN5)cc3)c3ccccc23)cc1 :: 5.60 to 6.30
Cc1cccc(-c2nnc(Nc3ccc(Oc4ncccc4-c4ccnc(N)n4)nc3)c3ccccc23)n1 :: ≥ 7.00
Nc1nccc(-c2cccnc2Oc2ccc(Nc3nnc(N4CCN5CCC[C@H]5C4)c4ccccc34)cc2)n1 :: ≥ 7.00
Nc1nccc(-c2cccnc2Oc2ccc(Nc3nnc(-c4cc(O)ccc4F)c4ccccc34)cc2)n1 :: ≥ 7.00
C[C@H](O)c1ccc(-c2nnc(Nc3ccc(Oc4ncccc4-c4ccnc(N)n4)cc3)c3ccccc23)cc1 :: ≥ 7.00

Please look at the following compound next.
Could you share which pIC50 value was measured for `COc1cccc(-c2nnc(Nc3ccc(Oc4ncccc4-c4c[nH]nc4N)cc3)c3ccccc23)c1` ? ≥ 7.00

###

- Tested on: phosphorylation of Histone H3
- ASSAY PROTOCOL: HeLa cell 1-hour phospho-histone assay
- Format: cell-based
- MEASUREMENT CONDITIONS: Homo sapiens, HeLa, 1 h, HeLa cells, 1 hour; average; given as class symbols; read-out: pHH3 EC50_IP (Avg)
Catalogue of molecules with associated EC50

Reference set, count: 2
O=c1cc(-c2cccnc2Oc2ccc(Nc3nnc(-c4ccccc4)c4ccccc34)cc2)cc[nH]1 [compound 432] :: 500 to 2500 nM
Nc1nccc(-c2cccnc2Oc2ccc(Nc3nnc(-c4ccccc4)cc3O)cc2)n1 [compound 263] :: 500 to 2500 nM

Continue with the molecule presented below.
Query EC50 on phosphorylation of Histone H3 for Cc1cc(-c2ccccc2)nnc1Nc1ccc(Oc2ncccc2-c2ccnc(NCCCO)n2)cc1 [compound 429] 100 to 500 nM

###

- MEASURED ON: AuroraA-TPX2 (Homo sapiens)
- Construct: 20 µL of AuroraA-TPX2 KD GST; GST
- ASSAY PROTOCOL: AuroraA-TPX2 Homogeneous Time Resolved Fluorescent (HTRF) kinase assay
- Assay type: biochemical
- MEASUREMENT CONDITIONS: average; given as class symbols; read-out: AurA/TP X2_ IC50_IP (Avg)
PROPERTY LABEL: IC50

Nc1nccc(-c2cccnc2Oc2ccc(Nc3nnc(-c4cccc(CO)c4)c4ccccc34)cn2)n1 :: ≤ 100 nM
C[C@H](O)c1cccc(-c2nnc(Nc3ccc(Oc4ncccc4-c4ccnc(N)n4)nc3)c3ccccc23)c1 :: ≤ 100 nM
Nc1nccc(-c2cccnc2Oc2ccc(Nc3nnc(N4CCC(O)CC4)c4ccccc34)cc2)n1 :: 500 to 2500 nM
Cc1cc(-c2ccccc2)nnc1Nc1ccc(Oc2ncccc2-c2ccnc(NCCCN3CCCCC3)n2)cc1 :: ≤ 100 nM
Nc1nccc(-c2cccnc2Oc2ccc(Nc3nnc(-c4ccccc4OC(F)(F)F)c4ccccc34)cc2)n1 :: 100 to 500 nM
CCOc1ccccc1-c1nnc(Nc2ccc(Oc3ncccc3-c3ccnc(N)n3)cc2)c2ccccc12 :: ≤ 100 nM
CCN(CCO)CCCNc1nccc(-c2cccnc2Oc2ccc(Nc3nnc(-c4ccccc4)cc3C)cc2)n1 :: ≤ 100 nM
Nc1nccc(-c2cccnc2Oc2ccc(Nc3nnc(-c4cccc(CO)c4)c4ccccc34)cc2)n1 :: ≤ 100 nM

Next molecule, please.
What does the record list as IC50 for `Cc1csc(-c2nnc(Nc3ccc(Oc4ncccc4-c4ccnc(NCCCO)n4)cc3)c3ccccc23)n1` ? ≤ 100 nM

###

- MEASURED ON: AuroraB (Homo sapiens, UniProt Q96GD4)
- Construct: 20 µL of AuroraB FL His; His
- Sequence (Q96GD4 whole entry): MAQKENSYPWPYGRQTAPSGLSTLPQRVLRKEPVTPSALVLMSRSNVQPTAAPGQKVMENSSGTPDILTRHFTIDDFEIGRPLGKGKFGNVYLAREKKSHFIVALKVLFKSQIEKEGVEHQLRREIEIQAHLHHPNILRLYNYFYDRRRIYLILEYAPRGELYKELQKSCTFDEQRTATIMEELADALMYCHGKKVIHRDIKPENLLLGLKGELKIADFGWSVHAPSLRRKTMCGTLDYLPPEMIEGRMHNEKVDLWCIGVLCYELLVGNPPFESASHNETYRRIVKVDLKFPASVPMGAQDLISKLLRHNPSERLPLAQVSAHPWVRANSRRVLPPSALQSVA
- ASSAY PROTOCOL: AuroraB Homogeneous Time Resolved Fluorescent (HTRF) kinase assay
- Type: biochemical
- MEASUREMENT CONDITIONS: average; given as class symbols; read-out: AurB_ _IC50_IP (Avg)
The reader will find reported IC50 values listed item by item below.

# count of solved cases: 4
Fc1cnc(NCCCN2CCCCC2)nc1-c1cccnc1Oc1ccc(Nc2nnc(-c3ccccc3)c3ccccc23)cc1 :: ≤ 100 nM
Cc1n[nH]cc1-c1cccnc1Oc1ccc(Nc2nnc(-c3ccccc3)c3ccccc23)cc1 :: 100 to 500 nM
CCc1cc(-c2ccccc2)nnc1Nc1ccc(Oc2ncccc2-c2ccnc(NCCCN3CCCC3)n2)cc1 :: ≤ 100 nM
CN1CCN(CCCNc2nccc(-c3cccnc3Oc3ccc(Nc4nnc(-c5ccccc5)c5ccccc45)cn3)n2)CC1 :: ≤ 100 nM

Pending compound:
GET /values?readout=IC50&system=AuroraB (Homo sapiens, UniProt Q96GD4)&item= `Nc1nccc(-c2cccnc2Oc2ccc(Nc3nnc(N4CCN5CCC[C@H]5C4)c4ccccc34)cc2)n1` ≤ 100 nM

###

- MEASURED ON: AuroraB (Homo sapiens, UniProt Q96GD4)
- Construct: 20 µL of AuroraB FL His; His
- ASSAY PROTOCOL: AuroraB Homogeneous Time Resolved Fluorescent (HTRF) kinase assay
- Assay type: biochemical
- MEASUREMENT CONDITIONS: average; given as numbers, unit inferred; read-out: AurB_ _IC50_IP (Avg)
pIC50: −log10 of the molar value.
PROPERTY LABEL: pIC50

A selection of reference data follows.
Nc1nccc(-c2cccnc2Oc2ccc(Nc3nnc(N4CCCC(F)C4)c4ccccc34)cc2)n1 (stereo not drawn) :: 8.13
CNc1nccc(-c2cccnc2Oc2ccc(Nc3nnc(-c4ccccc4)c4ccccc34)nc2)n1 :: 7.96
Cc1csc(-c2cnc(Nc3ccc(Oc4ncccc4-c4ccnc(N)n4)cc3)c3ccccc23)c1 :: 7.80

a: c1ccc(-c2nnc(Nc3ccc(Oc4ncccc4-c4ccnc(NCCCN5CCCCC5)n4)nc3)c3ccccc23)cc1
b: O=C1Cc2c(-c3cccnc3Oc3ccc(Nc4nnc(-c5ccccc5)c5ccccc45)cc3)ccnc2N1
Given a and b , report the one with the higher recorded pIC50. Could you answer with the label of the item you picked? b
(b: 8.21, a: 7.98)
